Reference source: the supplement of paper PMC4862054

Measured normalised response accompanies every entry in the list below.
Tested on: CAL-51
Procedure summary: normalised response (% of control), CellTiter-Glo; higher = more viable cells (100 = DMSO, 0 = benzethonium chloride kill control)
Measurement conditions: incubation time: 72 h
Measurement name: normalised response (%)

Compound | Measurement name | Observed measurement
Cc1c(N)nc([C@H](CC(N)=O)NC[C@H](N)C(N)=O)nc1C(=O)N[C@H](C(=O)N[C@H](C)[C@@H](O)[C@H](C)C(=O)N[C@H](C(=O)NCCc1nc(-c2nc(C(=O)NCCC[S+](C)C)cs2)cs1)[C@@H](C)O)[C@@H](OC1OC(CO)C(O)C(O)C1OC1OC(CO)C(O)C(OC(N)=O)C1O)c1cnc[nH]1 (stereo partly specified) [Bleomycin] (100 nM) | normalised response | 55
CCCCCOC(=O)Nc1nc(=O)n([C@@H]2O[C@H](C)[C@@H](O)[C@H]2O)cc1F [Capecitabine] (100 nM) | normalised response | 99.5
CC(C)C(=O)Nc1ccc([N+](=O)[O-])c(C(F)(F)F)c1 [Flutamide] (100 nM) | normalised response | 113
Cn1nnc2c(C(N)=O)ncn2c1=O [Temozolomide] (100 nM) | normalised response | 107
O=NN(CCCl)C(=O)NC1CCCCC1 [Lomustine] (100 nM) | normalised response | 104
CN1CCc2c(c3ccccc3n2Cc2ccc(C(=O)NO)cc2)C1 [Tubastatin A] (100 nM) | normalised response | 91.8
CC[C@@H]1C(=O)N(C)c2cnc(Nc3ccc(C(=O)N[C@H]4CC[C@H](N5CCN(CC6CC6)CC5)CC4)cc3OC)nc2N1C(C)C [Volasertib] (10 nM) | normalised response | 84.2
CC(C)C[C@H](NC(=O)[C@H](CCc1ccccc1)NC(=O)CN1CCOCC1)C(=O)N[C@@H](Cc1ccccc1)C(=O)N[C@@H](CC(C)C)C(=O)[C@@]1(C)CO1 [Carfilzomib] (10 nM) | normalised response | 60.5
Cn1cc(C[C@@H](N)C(=O)O)c2ccccc21 [1-methyl-D-tryptophan] (50 nM) | normalised response | 67.8
CN1CCN(c2nc(C3=C(c4c[nH]c5ccccc45)C(=O)NC3=O)c3ccccc3n2)CC1 [Sotrastaurin] (100 nM) | normalised response | 112
CC(C)NC[C@@H](C(=O)N1CCN(c2ncnc3c2[C@H](C)C[C@H]3O)CC1)c1ccc(Cl)cc1 [GDC-0068] (100 nM) | normalised response | 80

====

Tested on: CAL-85-1
Procedure summary: normalised viability (% of control), CellTiter-Blue; higher = more viable cells (about 100 = DMSO control)
Measurement conditions: incubation time: 72 h
Collected normalised viability values appear next to each entry.
Measurement name: normalised viability (%)

Compound | Measurement name | Value units | Observed measurement
O=C(O)CC[C@H]1CC[C@@](c2cc(F)ccc2F)(S(=O)(=O)c2ccc(Cl)cc2)CC1 [MK-0752] (100 nM) | normalised viability | % | 102
Cc1c(C(=O)Nc2ccc(N3C[C@@H](C)O[C@@H](C)C3)nc2)cccc1-c1ccc(OC(F)(F)F)cc1 [NVP-LDE225] (1000 nM) | normalised viability | % | 98.8
C[C@]12C=CC(=O)C=C1CC[C@@H]1[C@@H]2C(=O)C[C@@]2(C)[C@H]1CC[C@]2(O)C(=O)CO [Prednisone] (1000 nM) | normalised viability | % | 94.2
NC(=O)c1cccc2cn(-c3ccc([C@@H]4CCCNC4)cc3)nc12 [MK-4827] (1000 nM) | normalised viability | % | 93
C[C@@H](C(=O)O)c1ccc(-c2ccccc2)c(F)c1 [Tarenflurbil] (1000 nM) | normalised viability | % | 90
Cc1c(N)nc([C@H](CC(N)=O)NC[C@H](N)C(N)=O)nc1C(=O)N[C@H](C(=O)N[C@H](C)[C@@H](O)[C@H](C)C(=O)N[C@H](C(=O)NCCc1nc(-c2nc(C(=O)NCCC[S+](C)C)cs2)cs1)[C@@H](C)O)[C@@H](OC1OC(CO)C(O)C(O)C1OC1OC(CO)C(O)C(OC(N)=O)C1O)c1cnc[nH]1 (some centres not stated) [Bleomycin] (1000 nM) | normalised viability | % | 94.5
Cn1nnc2c(C(N)=O)ncn2c1=O [Temozolomide] (1000 nM) | normalised viability | % | 104
CC/C(=C(\c1ccccc1)c1ccc(OCCN(C)C)cc1)c1ccccc1 [Tamoxifen] (1000 nM) | normalised viability | % | 101
CC(C)C(=O)Nc1ccc([N+](=O)[O-])c(C(F)(F)F)c1 [Flutamide] (1000 nM) | normalised viability | % | 84.2
Nc1nc(Cl)nc2c1ncn2[C@@H]1O[C@H](CO)[C@@H](O)[C@@H]1F [Clofarabine] (1000 nM) | normalised viability | % | 56.1
O=C(c1cc(Cc2n[nH]c(=O)c3ccccc23)ccc1F)N1CCN(C(=O)C2CC2)CC1 [Olaparib] (1000 nM) | normalised viability | % | 85.8
NC(=O)NO [Hydroxyurea] (10000 nM) | normalised viability | % | 102
